For each record, write down the corresponding IC50.
Assayed Target: human TDO (TDO-expressing HEK293 cells) (Homo sapiens)
Construct: expressed in transfected cells
Sequence (P48775 whole entry): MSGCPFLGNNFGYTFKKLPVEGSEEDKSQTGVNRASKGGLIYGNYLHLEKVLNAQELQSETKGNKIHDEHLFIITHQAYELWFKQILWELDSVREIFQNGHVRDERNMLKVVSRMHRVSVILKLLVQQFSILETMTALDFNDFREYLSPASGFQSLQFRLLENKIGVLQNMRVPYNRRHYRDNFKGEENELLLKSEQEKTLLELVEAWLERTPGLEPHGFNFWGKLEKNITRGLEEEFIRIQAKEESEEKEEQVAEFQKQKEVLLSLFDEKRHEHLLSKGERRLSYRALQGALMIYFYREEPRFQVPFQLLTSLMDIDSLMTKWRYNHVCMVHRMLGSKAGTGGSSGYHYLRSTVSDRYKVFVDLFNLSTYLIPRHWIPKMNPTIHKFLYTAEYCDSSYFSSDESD
Assay Name: Cell based kynurenine assay, TDO-expressing HEK293 cell clones
Test Context: TDO-expressing HEK293 cells, 24 hours incubation; geometric mean; read-out: HEK293 TDO Kynurenine GMean IC50 (μM) (Cellular Assay)

Check out these entries, answers already filled in.
Compound: OC(CC1CCCCC1)c1cccc2cncn12 (centres unmarked) [Compound P-0079]
IC50: > 10 µM
//
Compound: O=C(CC1CC1)N1CCC(C(F)(F)C(O)c2cc(Cl)cc3cn[nH]c23)CC1 (centres unmarked) [Compound P-0149]
IC50: 0.0001 to 10 µM
//
Compound: CC(C)(C)OC(=O)N1CCC(C(C)(C)[C@H](O)c2c(F)c(Cl)cc3cn[nH]c23)CC1 [Compound P-0383]
IC50: 0.0001 to 10 µM
//
Compound: CC1(C(O)c2cccc3cncn23)CCCCC1 (centres unmarked) [Compound P-0061]
IC50: > 10 µM

Any idea what IC50 was measured for CS(=O)(=O)N1CCC(C(F)(F)C(O)c2cc(Cl)cc3cn[nH]c23)CC1 (centres unmarked) [Compound P-0270] ?
0.0001 to 10 µM

* * *

Assayed Target: Human Indoleamine 2,3-dioxygenase (IDO) (Homo sapiens, UniProt P14902)
Construct: His tag (N); made in house; host or cells: E. coli
Sequence (P14902 whole entry): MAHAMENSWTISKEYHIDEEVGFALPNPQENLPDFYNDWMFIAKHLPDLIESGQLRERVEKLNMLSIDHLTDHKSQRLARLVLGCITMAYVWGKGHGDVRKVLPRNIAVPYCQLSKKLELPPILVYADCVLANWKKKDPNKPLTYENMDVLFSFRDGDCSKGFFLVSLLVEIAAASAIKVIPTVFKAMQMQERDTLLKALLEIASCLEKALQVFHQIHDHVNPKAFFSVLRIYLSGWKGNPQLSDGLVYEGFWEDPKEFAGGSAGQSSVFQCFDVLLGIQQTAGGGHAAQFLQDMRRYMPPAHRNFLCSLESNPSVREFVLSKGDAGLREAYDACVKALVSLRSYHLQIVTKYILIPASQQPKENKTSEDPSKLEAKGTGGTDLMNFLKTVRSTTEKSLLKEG
Assay Name: Human IDO enzymatic assay (kynurenine level)
Format: biochemical
Test Context: biochemical assay; comparative examples, 4,6 versus 5,7 indazole; read-out: IDO1
For each of the compounds below, state its pIC50.
One number for each entry, as −log10 of the molar value.

Give pIC50 for each listed item.
1. CC(C)(C1CCOCC1)C(O)c1cc(Cl)cc2[nH]ncc12 (centres unmarked) [drawing 817]
2. CC(C)(C1CCOCC1)C(O)c1cc(Cl)cc2cn[nH]c12 (centres unmarked) [drawing 816]
3. OC(c1cc(Cl)cc2[nH]ncc12)C1CCCCC1 (centres unmarked) [drawing 811]
4. COC12CCC(C(O)c3cc(Cl)cc4cn[nH]c34)(CC1)CC2 (centres unmarked) [drawing 812]
5. OC1(c2cc(Cl)cc3[nH]ncc23)CC2(CCC2)C1 [drawing 819]

1: 6.02; 2: 6.96; 3: 5.49; 4: 6.96; 5: 4.66

* * *

Assayed Target: human TDO (TDO-expressing HEK293 cells) (Homo sapiens)
Construct: expressed in transfected cells
Assay Name: Cell based kynurenine assay, TDO-expressing HEK293 cell clones
Test Context: TDO-expressing HEK293 cells, 24 hours incubation; geometric mean; read-out: HEK293 TDO Kynurenine GMean IC50 (μM) (Cellular Assay)
Consider the following compounds; for each one, report its IC50.

Worked examples, 4 compounds total:
Compound: CC(C)(C1CCN(C(=O)c2ccccn2)CC1)C(O)c1cc(Cl)cc2cn[nH]c12 (stereo not drawn) [Compound P-0365]
Measured Metric: IC50
Experimental Result: 0.0001 to 10 µM

Compound: CC(C)(C(O)c1c(F)c(Cl)cc2cn[nH]c12)[C@H]1C[C@H]2CC[C@@H](C1)N2S(C)(=O)=O (stereo partly drawn) [Compound P-0285]
Measured Metric: IC50
Experimental Result: 0.0001 to 10 µM

Compound: OC(c1cc(Cl)cc2cn[nH]c12)C1CC2CCC1C2 (stereo not drawn) [Compound P-0240]
Measured Metric: IC50
Experimental Result: 0.0001 to 10 µM

Compound: OC(c1cc(F)cc2cn[nH]c12)C12CC3CC(CC(C3)C1)C2 (stereo not drawn) [Compound P-0043]
Measured Metric: IC50
Experimental Result: > 10 µM

Each compound below has a recorded value; state its IC50.
1. COCCCNC(=O)N1CCC(C(C)(C)C(O)c2cc(Cl)cc3cn[nH]c23)CC1 (stereo not drawn) [Compound P-0357]
2. OC(c1cc(Cl)cc2cn[nH]c12)C12CC(C1)C2 (stereo not drawn) [Compound P-0209]
3. CC(=O)N1CCC(C2(C(O)c3c(F)c(Cl)cc4cn[nH]c34)CC2)CC1 (stereo not drawn) [Compound P-0159]
4. CC(C)(C1CCN(C(=O)c2ccc(N3CCOCC3)nc2)CC1)C(O)c1cc(Cl)cc2cn[nH]c12 (stereo not drawn) [Compound P-0367]
5. CC1(C(O)c2cc(Cl)cc3cn[nH]c23)CCC(F)(F)CC1 (stereo not drawn) [Compound P-0032]
6. CCCC1(C(O)c2cc(Cl)cc3cn[nH]c23)CCC1 (stereo not drawn) [Compound P-0121]

1: 0.0001 to 10 µM; 2: 0.0001 to 10 µM; 3: 0.0001 to 10 µM; 4: 0.0001 to 10 µM; 5: 0.0001 to 10 µM; 6: 0.0001 to 10 µM

Please supply IC50 for each of the following items, keeping them in order.
1. O=C(Nc1ccc(C(F)(F)F)cc1)N1CCC(C(F)(F)C(O)c2cc(Cl)cc3cn[nH]c23)CC1 (stereo not drawn) [Compound P-0153]
2. CC(C)(C1CCN(C(=O)C2CC2)CC1)C(O)c1cc(Cl)cc2cn[nH]c12 (stereo not drawn) [Compound P-0312]
3. COC(=O)N1CCC(C2(C(O)c3cc(Cl)cc4cn[nH]c34)CC2)CC1 (stereo not drawn) [Compound P-0155]
4. OC(c1c(F)c(Cl)cc2cn[nH]c12)C1(C2CCOCC2)CC1 (stereo not drawn) [Compound P-0235]
5. CC(C)(C(O)c1cc(Cl)cc2cn[nH]c12)N1CCOCC1 (stereo not drawn) [Compound P-0215]
6. OC(c1cc(Cl)cc2cn[nH]c12)C1CCC1 (stereo not drawn) [Compound P-0116]
7. CN(C)c1ccc(NC(=O)N2CCC(C(C)(C)C(O)c3cc(Cl)cc4cn[nH]c34)CC2)cc1 (stereo not drawn) [Compound P-0402]
8. CC(C)(C1CCN(C(=O)Nc2cccc(F)c2)CC1)C(O)c1cc(Cl)cc2cn[nH]c12 (stereo not drawn) [Compound P-0359]

1. 0.0001 to 10 µM
2. 0.0001 to 10 µM
3. 0.0001 to 10 µM
4. 0.0001 to 10 µM
5. 0.0001 to 10 µM
6. 0.0001 to 10 µM
7. 0.0001 to 10 µM
8. 0.0001 to 10 µM

For each of the items listed, what is its IC50?
1. CC1(C)CN(c2c3c(cc4cn[nH]c24)CC3)CCN1S(C)(=O)=O [Compound P-0292]
2. CS(=O)(=O)N1C2CCC1CN(c1cc(Cl)cc3cn[nH]c13)C2 [Compound P-0093]
3. NC(=O)N1CCC(C(F)(F)C(O)c2cc(Cl)cc3cn[nH]c23)CC1 (stereo not drawn) [Compound P-0144]
4. CS(=O)(=O)N1C2CCC1CN(c1cc(C(F)(F)F)cc3cn[nH]c13)C2 [Compound P-0095]
5. CC(C)(C1CCCCC1)C(O)c1c(F)c(Cl)c(F)c2cn[nH]c12 (stereo not drawn) [Compound P-0253]
6. OC(c1c2c(cc3cn[nH]c13)CC2)C12CCC(CC1)CC2 (stereo not drawn) [Compound P-0279]
7. CC(C1CC1)(C1CC1)C(O)c1c(F)c(Cl)cc2cn[nH]c12 (stereo not drawn) [Compound P-0260]
8. OC(c1cc(Cl)cc2cn[nH]c12)C12CCC(F)(CC1)CC2 (stereo not drawn) [Compound P-0227]

0.0001 to 10 µM
0.0001 to 10 µM
0.0001 to 10 µM
0.0001 to 10 µM
0.0001 to 10 µM
> 10 µM
0.0001 to 10 µM
0.0001 to 10 µM
